- Target or test system: Cyclin-dependent kinase 2/cyclin E (Homo sapiens)
- Experiment summary: Inhibition of CDK2/cyclin E (unknown origin) assessed as inhibition constant incubated for 30 to 60 mins presence of dithiothreitol by Cheng-Prusoff equation analysis
- Type: protein-complex assay
Observed property: Ki (nM)
Answers are plain numbers, in nM.

| Sample smiles | Target or test system | Observed property | Endpoint result |
| --- | --- | --- | --- |
| Cn1cc(-c2nc(Nc3cccc(S(N)(=O)=O)c3)ncc2F)cn1 | Cyclin-dependent kinase 2/cyclin E (Homo sapiens) | Ki | 23 |

Would you mind listing Ki for each of the following molecules?
1. Cn1cc(-c2nc(Nc3ccc(S(=O)(=O)C(F)(F)F)cc3)ncc2F)cn1
2. Cn1cc(-c2nc(Nc3ccc(S(N)(=O)=O)cc3)ncc2Cl)cn1
3. Cc1nn(C)cc1-c1nc(NC2CCN(S(C)(=O)=O)CC2)ncc1Cl
4. Cn1cc(-c2nc(Nc3ccc(S(C)(=O)=O)cc3)ncc2Cl)cn1
5. Cn1cc(-c2nc(Nc3cccc(S(N)(=O)=O)c3)ncc2Cl)cn1
6. Cn1cc(-c2nc(NC3CCN(S(C)(=O)=O)CC3)ncc2F)cn1
7. Cn1cc(-c2nc(Nc3cccc([N+](=O)[O-])c3)ncc2F)cn1

Result string:
1: 70; 2: 1; 3: 16; 4: 7; 5: 176; 6: 18; 7: 87

// for each molecule below, give its Ki
1. Cn1cc(-c2nc(Nc3ccc(S(N)(=O)=O)cc3)ncc2F)cn1
2. Cn1cc(-c2nc(NC3CCN(S(C)(=O)=O)CC3)ncc2Cl)cn1
3. Cn1nccc1-c1nc(Nc2cccc(S(N)(=O)=O)c2)ncc1F

Result string:
21
8
171

----------
- Target or test system: CDK9/Cyclin T (Homo sapiens, UniProt P50750)
- Sequence (O60563 whole entry): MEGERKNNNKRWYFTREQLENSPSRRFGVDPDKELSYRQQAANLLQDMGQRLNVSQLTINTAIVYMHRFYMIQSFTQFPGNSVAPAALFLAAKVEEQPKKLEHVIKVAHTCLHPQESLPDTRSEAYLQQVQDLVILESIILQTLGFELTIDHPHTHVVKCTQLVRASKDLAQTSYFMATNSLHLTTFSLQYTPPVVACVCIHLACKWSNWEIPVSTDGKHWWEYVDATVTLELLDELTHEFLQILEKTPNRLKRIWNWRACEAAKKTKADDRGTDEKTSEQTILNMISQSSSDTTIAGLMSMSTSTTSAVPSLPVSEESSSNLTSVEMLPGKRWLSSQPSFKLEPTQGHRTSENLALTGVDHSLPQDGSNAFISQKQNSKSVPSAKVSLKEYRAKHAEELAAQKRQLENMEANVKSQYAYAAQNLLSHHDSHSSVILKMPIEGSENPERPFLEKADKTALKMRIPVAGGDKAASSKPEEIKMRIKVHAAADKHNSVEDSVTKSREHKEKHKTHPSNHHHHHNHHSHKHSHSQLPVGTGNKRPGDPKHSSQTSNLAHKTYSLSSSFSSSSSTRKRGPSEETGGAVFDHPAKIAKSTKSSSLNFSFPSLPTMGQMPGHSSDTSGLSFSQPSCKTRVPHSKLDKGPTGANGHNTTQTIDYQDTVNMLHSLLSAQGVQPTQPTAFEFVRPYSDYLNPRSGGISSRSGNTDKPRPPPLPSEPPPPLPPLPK
- Sequence (P50750 whole entry): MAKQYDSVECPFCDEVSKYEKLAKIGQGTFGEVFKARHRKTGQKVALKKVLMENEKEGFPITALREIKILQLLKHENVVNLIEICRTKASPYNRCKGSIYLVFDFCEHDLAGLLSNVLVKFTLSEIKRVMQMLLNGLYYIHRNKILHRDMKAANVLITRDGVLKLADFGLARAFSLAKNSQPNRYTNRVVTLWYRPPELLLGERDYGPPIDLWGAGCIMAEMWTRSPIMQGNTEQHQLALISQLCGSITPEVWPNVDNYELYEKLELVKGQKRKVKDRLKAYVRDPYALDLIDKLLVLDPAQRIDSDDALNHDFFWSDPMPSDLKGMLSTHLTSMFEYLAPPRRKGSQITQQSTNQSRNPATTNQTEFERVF
- Sequence (O60583 whole entry, further chain): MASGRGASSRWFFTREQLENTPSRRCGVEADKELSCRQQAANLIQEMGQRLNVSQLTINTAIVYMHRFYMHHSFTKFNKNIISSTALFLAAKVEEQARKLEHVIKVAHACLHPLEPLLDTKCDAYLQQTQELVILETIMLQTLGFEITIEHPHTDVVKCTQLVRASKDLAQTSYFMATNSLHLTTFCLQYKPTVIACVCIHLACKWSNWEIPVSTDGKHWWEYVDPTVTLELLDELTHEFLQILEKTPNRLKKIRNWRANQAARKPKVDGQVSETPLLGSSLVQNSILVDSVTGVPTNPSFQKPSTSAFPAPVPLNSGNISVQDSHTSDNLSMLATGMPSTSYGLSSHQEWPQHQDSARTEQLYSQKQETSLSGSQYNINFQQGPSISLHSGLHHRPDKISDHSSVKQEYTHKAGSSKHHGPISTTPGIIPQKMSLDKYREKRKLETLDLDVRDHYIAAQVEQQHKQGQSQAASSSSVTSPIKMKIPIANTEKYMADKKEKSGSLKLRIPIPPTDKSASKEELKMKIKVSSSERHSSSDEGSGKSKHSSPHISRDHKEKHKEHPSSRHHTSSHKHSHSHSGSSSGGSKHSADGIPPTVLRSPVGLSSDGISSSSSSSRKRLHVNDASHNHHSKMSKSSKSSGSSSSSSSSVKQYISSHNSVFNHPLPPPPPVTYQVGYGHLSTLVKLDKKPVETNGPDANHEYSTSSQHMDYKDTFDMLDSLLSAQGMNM
- Experiment summary: Inhibition of CDK9/cyclin T (unknown origin) assessed as inhibition constant
Observed property: Ki

Query string: Retrieve Ki measured for `C[C@@]1(O)CCC[C@H]1n1c(=O)c(C(F)F)cc2cnc(NC3CCN(S(C)(=O)=O)CC3)nc21` and print it.
Result string: < 19 nM

----------
- Target or test system: Cyclin-dependent kinase 1/cyclin B (Homo sapiens)
- Experiment summary: Inhibition of CDK1/Cyclin B (unknown origin) assessed as inhibition constant incubated for 30 to 60 mins presence of dithiothreitol by Cheng-Prusoff equation analysis
- Format: protein-complex assay
Observed property: Ki (nM)
Give bare numbers, in nM.

| Sample smiles | Ki [nM] |
| --- | --- |
| Cc1nn(C)cc1-c1nc(NC2CCN(S(C)(=O)=O)CC2)ncc1Cl | 12 |
| Cn1cc(-c2nc(Nc3ccc(S(N)(=O)=O)cc3)ncc2F)cn1 | 6 |
| Cn1cc(-c2nc(Nc3ccc(S(C)(=O)=O)cc3)ncc2Cl)cn1 | 6 |
| Cn1cc(-c2nc(Nc3ccc(S(C)(=O)=O)cc3)ncc2F)cn1 | 146 |
| Cn1cc(-c2nc(Nc3cccc(S(N)(=O)=O)c3)ncc2Cl)cn1 | 5 |
| Cn1cc(-c2nc(Nc3cccc(S(N)(=O)=O)c3)ncc2F)cn1 | 5 |
| Cn1cc(-c2nc(NC3CCN(S(C)(=O)=O)CC3)ncc2Cl)cn1 | 26 |
| Cn1cc(-c2nc(NC3CCN(S(C)(=O)=O)CC3)ncc2F)cn1 | 99 |

Query string: Consider the compound `Cn1cc(-c2nc(Nc3ccc(S(N)(=O)=O)cc3)ncc2Cl)cn1` . State its measured Ki.
Result string: 5
